conditions: in n-propanol, 313.1 K

chem.smiles	solubility (mole fraction)
c1cc2c3c(cccc3c1)CC2	0.0295

* * *

conditions: in acetone, 298 K
readout.type: solubility (mole fraction)

chem.smiles	result
c1cc2c3c(cccc3c1)CC2	0.0692

* * *

conditions: in m-xylene, 318 K

chem.smiles	solubility (mole fraction)
c1cc2c3c(cccc3c1)CC2	0.281

* * *

settings: in n-propanol, 308 K
readout.type: solubility (mole fraction)

chem.smiles	readout.type	result
c1cc2c3c(cccc3c1)CC2	solubility (mole fraction)	0.0246

* * *

conditions: in acetone, 318 K

chem.smiles	solubility (mole fraction)
c1cc2c3c(cccc3c1)CC2	0.136

* * *

conditions: in isobutanol, 303.3 K
readout.type: solubility (mole fraction)

chem.smiles	result
c1cc2c3c(cccc3c1)CC2	0.0253

Source: BigSolDB 2.1
